System: SR
PROTOCOL: NCI tumour cell line growth inhibition, 48 h
The source made the active and inactive calls. Cut-off read from the data, not from the text of the source: active = GI50 up to about 1.1 µM and inactive = higher.
Select the matching outcome among true (1) for active, false (0) for inactive

CSC(=N)N1N=C2/C(=C/c3ccccc3)CCC[C@H]2[C@H]1c1ccccc1 :: false (0)
O=C1C2c3[nH]c4ccccc4c3C3CCCC3C2C(=O)N1c1ccccc1 (stereo not given) :: false (0)
O=C(CCc1ccccc1)On1nnc2ccccc2c1=O :: false (0)

**Query** Please state the recorded outcome for this molecule: COC(=O)c1ccc(NC(=O)c2cc(OC)c(OC)c(OC)c2)cc1
**Result** false (0)

**Query** Please state the recorded outcome for this molecule: NC(C(=O)O)c1ccc(C(=O)O)cc1 (stereo not given)
**Result** false (0)

**Query** Please state the recorded outcome for this molecule: C/C(=N\O)c1ccc2cc(Br)c3ccccc3c2c1
**Result** false (0)

**Query** Please state the recorded outcome for this molecule: CCN1CCC(O)(/C=C/c2ccc(C)cc2C)C(C(=O)/C=C/c2ccc(C)cc2C)C1 (stereo not given)
**Result** false (0)

**Query** Please state the recorded outcome for this molecule: Cc1ccc(NC(=O)/C(=N\NC(N)=O)c2c(O)c3ccccc3[nH]c2=O)cc1
**Result** false (0)

**Query** Please state the recorded outcome for this molecule: CCC1=CCN(c2ccc(C)cc2)OC1c1ccc(OC)cc1 (stereo not given)
**Result** false (0)

**Query** Please state the recorded outcome for this molecule: CCOc1ccc(NC(=O)C(=O)CC(=O)c2c(C)[n+]([O-])c3ccccc3[n+]2[O-])cc1
**Result** false (0)

**Query** Please state the recorded outcome for this molecule: OC1c2ccccc2C(O)C2OC12 (stereo not given)
**Result** false (0)

**Query** Please state the recorded outcome for this molecule: CCOC(=O)c1ccc(C(=O)n2ccnc2)[nH]1
**Result** false (0)

**Query** Please state the recorded outcome for this molecule: CCN(CC)CCCNc1c2c(Cl)cc(Cl)cc2nc2nc(O)nc(C)c12
**Result** false (0)

**Query** Please state the recorded outcome for this molecule: COc1cc(CO)c(CC(=O)NCCCc2ccccc2)cc1OC
**Result** false (0)

**Query** Please state the recorded outcome for this molecule: CCOC(=O)N/N=C(/N)c1cccc(Br)c1
**Result** false (0)

**Query** Please state the recorded outcome for this molecule: CC(C)(CN1CCCCC1)C(=O)/C=C/c1c(Cl)cccc1Cl
**Result** true (1)

**Query** Please state the recorded outcome for this molecule: CC(C)C(=O)/C=C/c1ccc(Br)cc1
**Result** false (0)

**Query** Please state the recorded outcome for this molecule: COc1ccc(C(=O)/C=C/c2cccnc2)cc1OC
**Result** false (0)

**Query** Please state the recorded outcome for this molecule: N#Cc1nc(C2CCC(=O)O2)oc1N (stereo not given)
**Result** false (0)

**Query** Please state the recorded outcome for this molecule: COc1cc(C)cc(OC)c1/C=C/C(=O)O
**Result** false (0)

The measured values listed here are drawn from ChEMBL document CHEMBL1201862.
